- study-target: Metabotropic glutamate receptor 5 (Rattus norvegicus, UniProt P31424)
- Sequence (P31424 whole entry): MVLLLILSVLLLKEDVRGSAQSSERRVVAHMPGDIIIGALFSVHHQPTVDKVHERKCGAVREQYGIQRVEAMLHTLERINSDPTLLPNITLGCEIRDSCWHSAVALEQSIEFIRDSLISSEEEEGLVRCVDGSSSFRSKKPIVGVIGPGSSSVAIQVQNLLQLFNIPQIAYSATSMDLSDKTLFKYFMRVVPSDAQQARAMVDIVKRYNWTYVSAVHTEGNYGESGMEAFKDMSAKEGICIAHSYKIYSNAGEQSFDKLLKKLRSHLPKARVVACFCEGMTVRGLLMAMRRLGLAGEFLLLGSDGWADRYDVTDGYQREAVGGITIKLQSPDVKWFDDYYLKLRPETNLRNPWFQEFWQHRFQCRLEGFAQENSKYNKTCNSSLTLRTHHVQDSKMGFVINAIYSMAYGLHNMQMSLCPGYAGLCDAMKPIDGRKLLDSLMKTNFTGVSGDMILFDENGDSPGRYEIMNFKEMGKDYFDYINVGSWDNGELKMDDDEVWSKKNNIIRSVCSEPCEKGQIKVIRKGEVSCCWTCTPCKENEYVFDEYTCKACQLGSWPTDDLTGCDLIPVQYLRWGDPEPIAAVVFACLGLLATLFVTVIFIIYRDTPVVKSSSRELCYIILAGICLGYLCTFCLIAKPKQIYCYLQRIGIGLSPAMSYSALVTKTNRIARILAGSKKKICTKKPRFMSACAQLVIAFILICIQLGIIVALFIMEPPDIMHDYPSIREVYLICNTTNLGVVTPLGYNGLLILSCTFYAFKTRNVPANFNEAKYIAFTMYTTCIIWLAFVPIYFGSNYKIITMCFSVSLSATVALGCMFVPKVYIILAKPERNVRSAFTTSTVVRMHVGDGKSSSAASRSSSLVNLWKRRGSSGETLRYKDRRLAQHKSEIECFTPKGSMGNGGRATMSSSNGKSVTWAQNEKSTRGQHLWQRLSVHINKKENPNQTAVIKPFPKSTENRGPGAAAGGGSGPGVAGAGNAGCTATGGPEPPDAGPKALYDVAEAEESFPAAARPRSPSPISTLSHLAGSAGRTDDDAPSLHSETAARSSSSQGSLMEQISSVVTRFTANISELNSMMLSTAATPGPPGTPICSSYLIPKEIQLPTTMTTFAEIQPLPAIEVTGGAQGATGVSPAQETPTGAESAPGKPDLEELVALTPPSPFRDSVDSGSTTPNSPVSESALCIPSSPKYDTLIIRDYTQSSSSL
- protocol-details: Antagonist activity at rat mGlu5 receptor expressed in CHO cells assessed as inhibition of quisqualate-stimulated calcium mobilization
Class boundaries, taken from values of IC50, are as follows: low: < 70 nM; middle: ≥ 70 nM and < 8000 nM; high: ≥ 8000 nM

COc1cc(OC)cc(-c2ccc3ccc(C)nc3n2)c1 low

From here, focus on the item given below.
INPUT: Kindly identify the class of "N#Cc1cc(F)cc(-c2cc3ncccc3cn2)c1" .
OUTPUT: middle

====

- study-target: Metabotropic glutamate receptor 5 (Rattus norvegicus, UniProt P31424)
- protocol-details: Antagonist activity at rat mGlu5 receptor expressed in CHO cells assessed as inhibition of quisqualate-stimulated calcium mobilization
- Type: functional, cell-based
parameter: pIC50
The value called pIC50 is obtained by taking minus log10 of the concentration in mol/L.

Examples with their reported pIC50 follow.
Cc1ccc2ccc(-c3cccc(C#N)c3)nc2n1 6.32
Cc1cc(F)cc(-c2cc3ncccc3cn2)c1 5.18
Cc1ccc2ccc(-c3cc(F)cc(F)c3)nc2n1 6.74

INPUT: Look at this compound and give its reported pIC50. "Cc1cccc(-c2cc3ncccc3cn2)c1"
OUTPUT: 5.90

INPUT: Look at this compound and give its reported pIC50. "N#Cc1cccc(-c2ccc3cccnc3n2)c1"
OUTPUT: 6.94

INPUT: Look at this compound and give its reported pIC50. "Cc1cc(F)cc(-c2cc3nc(C)ccc3cn2)c1"
OUTPUT: 5.53

INPUT: Look at this compound and give its reported pIC50. "COc1cc(OC)cc(-c2ccc3cccnc3n2)c1"
OUTPUT: 7.17

INPUT: Look at this compound and give its reported pIC50. "Cc1cccc(-c2cc3nc(C)ccc3cn2)c1"
OUTPUT: 6.17

INPUT: Look at this compound and give its reported pIC50. "Cc1cccc(-c2ccc3ccc(C)nc3n2)c1"
OUTPUT: 6.56

INPUT: Look at this compound and give its reported pIC50. "COc1cc(OC)cc(-c2cc3nc(C)ccc3cn2)c1"
OUTPUT: 6.46

INPUT: Look at this compound and give its reported pIC50. "COc1cc(C#N)cc(-c2cc3nc(C)ccc3cn2)c1"
OUTPUT: 8.21

INPUT: Look at this compound and give its reported pIC50. "COc1cc(OC)cc(-c2cc3ncccc3cn2)c1"
OUTPUT: 5.22

INPUT: Look at this compound and give its reported pIC50. "Cc1ccc2ccc(-c3cccc(Cl)c3)nc2n1"
OUTPUT: 6.75

INPUT: Look at this compound and give its reported pIC50. "Cc1ccc(-c2ccc3cccnc3n2)cc1C"
OUTPUT: 7.35

INPUT: Look at this compound and give its reported pIC50. "COCOc1cc(C#N)cc(-c2cc3ncccc3cn2)c1"
OUTPUT: 6.33
